Tested on: CT26
Assay: Monolayer Cell Culture Assay, IC50
Format: cell-based
Settings: Mus musculus; CT26, Colon; read-out: IC50 Test (II) Avg
pIC50: −log10 of the molar value.
Assay endpoint: pIC50

# Molecule, Meas value
measured = [
    ("CC1(C)CCC(C)(C)c2cc(NC(=O)c3ccc(C(=O)O)cc3)ccc21 [TAM, reference compound]", 4.02),
]

---

System: HT29
Assay: Monolayer Cell Culture Assay, IC50
Format: cell-based
Conditions: Homo sapiens, HT-29; HT29, Colon; read-out: IC50 Test (II) Avg

# Compound, IC50 [µM]
records = [
    ("CC1(C)CCC(C)(C)c2cc(NC(=O)c3ccc(C(=O)O)cc3)ccc21 [TAM, reference compound]", 111),
]

---

Tested on: PC-3
Test: Monolayer Cell Culture Assay, IC50
Type: cell-based
Conditions: Homo sapiens; PC-3, Prostate; read-out: IC50 Test (II) Avg
Assay endpoint: IC50

# Molecule, Assay endpoint, Meas value
measured = [
    ("CC1(C)CCC(C)(C)c2cc(NC(=O)c3ccc(C(=O)O)cc3)ccc21 [TAM, reference compound]", "IC50", "> 100 µM"),
]
